Target: T1, human DLL3 on DLL3 expressing cancer cell lines (human, UniProt Q9NYJ7 27-618)
T1 sequence: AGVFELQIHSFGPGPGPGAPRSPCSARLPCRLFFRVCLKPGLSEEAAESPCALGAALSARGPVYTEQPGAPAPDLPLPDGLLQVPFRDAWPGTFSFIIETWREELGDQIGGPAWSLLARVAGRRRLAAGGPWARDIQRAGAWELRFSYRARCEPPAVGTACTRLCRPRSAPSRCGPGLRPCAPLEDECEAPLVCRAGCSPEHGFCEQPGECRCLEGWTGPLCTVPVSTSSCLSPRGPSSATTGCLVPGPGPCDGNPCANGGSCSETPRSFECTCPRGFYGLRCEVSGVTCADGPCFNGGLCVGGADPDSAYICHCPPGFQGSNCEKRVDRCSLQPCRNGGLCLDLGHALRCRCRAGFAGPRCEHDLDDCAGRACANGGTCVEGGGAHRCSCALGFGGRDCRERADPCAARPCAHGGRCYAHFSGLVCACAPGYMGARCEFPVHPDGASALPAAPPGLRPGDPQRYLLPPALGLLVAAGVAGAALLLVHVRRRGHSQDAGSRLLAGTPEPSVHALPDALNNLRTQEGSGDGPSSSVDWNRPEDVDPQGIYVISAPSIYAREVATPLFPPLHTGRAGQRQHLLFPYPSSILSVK
Assay: cell-based or functional assay
readout: TDCC EC50, CHO expressed purified protein (nM)
The figure you give is taken to be in nM; do not add the unit.

Problem: What does the record list as TDCC EC50, CHO expressed purified protein for anti-DLL3 trispecific protein 1H012 (other, not shown: small tags and cut ends) EVQLVESGGGLVQPGGSLTLSCVASGSTSSINAMGWYRRAPGKQRELVAGISSDGSKVYVDSVKGRFTISRDNAKNSVYLQMNSLRAEDTAVYYCYYFRTVSGSSMPYWGQGTLVTVSS ?
Solution: 0.063

Problem: Quick check: TDCC EC50, CHO expressed purified protein of anti-DLL3 trispecific protein 4D09 (other, not shown: small tags and cut ends) EVQLVESGGGLVQPGGSLTLSCAASGSSVKFLSMAWYRQAPGKKRELVAGISADGSTDYILSVKGRFTISRDNAKNSVYLQMNSLRAEDTAVYYCYAYEWTTRYTYWGQGTLVTVSS ?
Solution: 0.06

Problem: Using the record for anti-DLL3 trispecific protein 4D011 (other, not shown: small tags and cut ends) EVQLVESGGGLVQPGGSLTLSCAASGSSVRFLSMAWYRQAPGKKRELVAGISVDGSTDYIDSVKGRFTISRDNAKNSVYLQMNSLRAEDTAVYYCYAYRWRTRYTYWGQGTLVTVSS , report its TDCC EC50, CHO expressed purified protein.
Solution: 0.098

Problem: Look up TDCC EC50, CHO expressed purified protein: anti-DLL3 trispecific protein 2E05 (other, not shown: small tags and cut ends) EVQLVESGGGLVQPGGSLTLSCVASGSPSSINAYGWYRRAPGKQRELVAGISSDGSKVYSDSVKGRFTISRDNAKNSVYLQMNSLRAEDTAVYYCYYFRTVSGSSMSYWGQGTLVTVSS
Solution: 0.072
